PROTOCOL DESCRIPTION: Solubility of asenapine maleate in water and solvents
Type: physicochemical
CONDITION SUMMARY: benzyl alcohol, organic solvent or mixture; BA; read-out: benzyl alcohol (BA) solubility
Structures can show the parent of a compound that is named as a salt.
OBSERVABLE: solubility (mg/mL)
Just the number in mg/mL, nothing appended.

Look up and report measured solubility for this entry: CN1C[C@@H]2c3ccccc3Oc3ccc(Cl)cc3[C@H]2C1 (racemic) [asenapine maleate] 500

###

PROTOCOL DESCRIPTION: Solubility of asenapine maleate in water and solvents
Assay type: physicochemical
CONDITION SUMMARY: water; read-out: water solubility
Structures can show the parent of a compound that is named as a salt.
OBSERVABLE: solubility (µg/mL)
Just the number in µg/mL, nothing appended.

Look up and report measured solubility for this entry: CN1C[C@@H]2c3ccccc3Oc3ccc(Cl)cc3[C@H]2C1 (racemic) [asenapine maleate] 3000
